Data provenance is patent US8343961B2.

# maps each entry to its inhibition at 30 µM
# tested.on: Tec kinase (Homo sapiens, UniProt P42680)
# Sequence (P42680 whole entry): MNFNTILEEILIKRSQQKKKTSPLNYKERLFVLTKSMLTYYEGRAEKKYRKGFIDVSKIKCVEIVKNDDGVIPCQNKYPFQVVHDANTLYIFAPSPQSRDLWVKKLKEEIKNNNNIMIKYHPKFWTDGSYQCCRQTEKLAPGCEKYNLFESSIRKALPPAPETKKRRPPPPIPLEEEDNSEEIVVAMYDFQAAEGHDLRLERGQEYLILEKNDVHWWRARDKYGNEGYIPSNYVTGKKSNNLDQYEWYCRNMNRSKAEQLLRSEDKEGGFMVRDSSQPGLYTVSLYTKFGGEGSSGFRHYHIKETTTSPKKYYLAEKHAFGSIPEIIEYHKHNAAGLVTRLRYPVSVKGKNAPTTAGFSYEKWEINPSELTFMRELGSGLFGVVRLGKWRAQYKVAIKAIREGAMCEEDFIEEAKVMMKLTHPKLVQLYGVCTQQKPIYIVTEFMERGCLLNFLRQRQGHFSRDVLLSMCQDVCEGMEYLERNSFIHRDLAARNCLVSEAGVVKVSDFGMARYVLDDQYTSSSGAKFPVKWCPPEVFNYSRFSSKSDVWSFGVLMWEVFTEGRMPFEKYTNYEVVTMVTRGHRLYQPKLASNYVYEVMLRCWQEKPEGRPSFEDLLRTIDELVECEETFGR
# procedure.text: Tec Kinase Activity Assay
# Assay type: biochemical
# assay.context: read-out: Tec % INH, at 30 uM
# Method: The disclosed compounds were assayed for their ability to inhibit the activity of Tec kinase. Nunc Maxisorb plates were coated with streptavidin by overnight incubation with 100 μL per well of 1 μg/mL Streptavidin in DPBS. Prior to the start of the experiment, the plates were washed with TBST (3×200 μL) and blocked for at least 1 hour by adding 150 μL of 5% BSA/TBST. The plates were washed with TBST (3×200 μL/well) and left dry immediately before the capture step. […]

Specify measured inhibition at 30 µM for Cc1ccc(CN2CCN(c3nc(N)nc4[nH]cnc34)Cc3ccccc32)cc1 [Compound 26] .
< 50%

Specify measured inhibition at 30 µM for Nc1nc(N2CCN(Cc3ccc(Cl)cc3Cl)c3ccccc3C2)c2cn[nH]c2n1 [Compound 32] .
50 to 79%

Specify measured inhibition at 30 µM for Nc1nc(N2CCN(Cc3ccccc3Cl)c3ccccc3C2)c2cn[nH]c2n1 [Compound 14] .
50 to 79%

Specify measured inhibition at 30 µM for Nc1nc(N2CCN(Cc3ccc(F)cc3)c3ccccc3C2)c2cn[nH]c2n1 [Compound 16] .
50 to 79%

Specify measured inhibition at 30 µM for COc1ccc(CN2CCN(c3nc(N)nc4[nH]cnc34)Cc3ccccc32)cc1OC [Compound 27] .
50 to 79%

Specify measured inhibition at 30 µM for Nc1nc(N2CCN(Cc3ccc(F)c(F)c3)c3ccccc3C2)c2cn[nH]c2n1 [Compound 47] .
50 to 79%

Specify measured inhibition at 30 µM for Nc1nc(N2CCN(CCCc3ccccc3)c3ccccc3C2)c2cn[nH]c2n1 [Compound 41] .
50 to 79%

Specify measured inhibition at 30 µM for CC(C)(C)c1ccc(CN2CCN(c3nc(N)nc4[nH]cnc34)Cc3ccccc32)cc1 [Compound 29] .
< 50%
